Value source: PubChem BioAssay (NCI)

test system: MOLT-4 leukemia; experiment: NCI-60 one-dose screen, 48 h (100 = growth as untreated, 0 = no growth, -100 = all killed); details: 10 µM unless noted
The panel holds about 83,000 compounds, 20% with a hit somewhere; the sample as a whole holds those more often.
The molecules listed here are annotated with their growth.
The answer is to be given in %; state only the numeric part.

For orientation, consider the following solved cases.
molecule	target under test	unit text	growth
COc1ccc(OC)c(Nc2nnc(-c3cc(OC)c(OC)c(OC)c3)o2)c1	MOLT-4 leukemia	%	84.1
Cc1ccc2c(c1)sc1nc(-c3c[nH]c4ccccc34)c(Nc3ccccc3)n12	MOLT-4 leukemia	%	98.7
COCC(=O)Oc1cc(-c2ccc(C)cc2C)c(OC(=O)COC)c(-c2ccc(C)cc2C)c1	MOLT-4 leukemia	%	21.7

Q: For the molecule COc1ccc2c(c1)oc1c(C)c3c(c(C)c12)C(=O)N(CCOS(C)(=O)=O)C3=O , what growth is on record?
A: 94.7

Q: Ok, now CCOC(=O)CNC1=C(Cl)C(=O)N(Cc2ccc(Cl)cc2)C1=O
A: 98.2

Q: Ok, now CN(C)Cc1ccc(NC(=O)c2cncc(C#Cc3cnc(N)c4ncccc34)c2)cc1C(F)(F)F
A: 43.5

Q: Ok, now Cn1c2ccccc2c2c3c(c4c5cc(Br)ccc5n(C)c4c21)C(=O)N(O)C3=O
A: -21.4

Q: Ok, now O=C(OCc1ccc2c(Cl)cc(Cl)c(O)c2n1)N1CCN(C(=O)c2cc3ccccc3[nH]2)CC1
A: 20.5

---

tested on: UACC-257 melanoma; test: NCI-60 one-dose screen, 48 h (100 = growth as untreated, 0 = no growth, -100 = all killed); settings: 10 µM unless noted
The panel holds about 83,000 compounds, 20% with a hit somewhere; the sample as a whole holds those more often.
Output Y for records whose growth is lower than 60%, N for records at or above 60%.

Solved cases below.
compound	assigned class
O=C(/C=C/C12c3ccccc3C(c3ccccc31)C1C(=O)NC(=O)C12)c1ccco1 (stereo not drawn)	Y
C[N+]1=C(/C=C/c2ccccc2Cl)C(C)(C)c2ccccc21	N

Q: Please state whether growth is below 60% for O=[N+]([O-])c1ccccc1Sc1ccccc1[N+](=O)[O-]
A: N

Q: Ok, now CCN1C2CCC1/C(=C\c1ccccc1)C(=O)/C2=C/c1ccccc1
A: Y

Q: Ok, now COC(=O)c1ccc2c(c1)c1c(C)c3cnccc3c(C)c1n2C
A: Y

Q: Ok, now O=C(/C=C/c1ccccc1Cl)c1cccc(OCCCCOc2cccc(C(=O)/C=C/c3ccccc3Cl)c2)c1
A: N

Q: Ok, now Clc1ccc(-c2nc(C(Cl)Cl)nc3cc(-c4ccccc4)nn23)cc1
A: Y

Q: Ok, now O=C(Nc1cc(Cl)ccc1O)c1ccccc1Nc1ccnc(C(F)(F)F)c1
A: Y

Q: Ok, now COC1C(O)CC(OC2CC(OC3CC(O[C@@H]4C(=O)c5c(cc6cc(OC7CC(OC8CC(O)C(O)C(C)O8)C(O)C(C)O7)c(C)c(O)c6c5O)CC4[C@H](OC)[C@@H](O)C(C)=O)OC(C)C3O)OC(C)C2O)OC1C (stereo partly drawn)
A: Y

Q: Ok, now C#CCOc1ccc2nc(CCl)c(Cl)c(Nc3cccc(C(F)(F)F)c3)c2c1
A: N

Q: Ok, now Cc1ccc(-c2nc(SCC(=O)N3CCN(c4cc5c(cc4F)c(=O)c(C(=O)O)cn5C4CC4)CC3)nc(Cl)c2C#N)cc1
A: N

Q: Ok, now CCn1cc(Cc2cc(C(=O)Nc3cc4cc(OC)c(OC)cc4c(C)n3)ccc2Cl)cn1
A: Y
